- SYSTEM UNDER TEST: AxCT mask27 EGFR EH104 L060 version 1
EXPERIMENTAL ENDPOINT: Percent cleavage (%)
Value expressed in %; do not type the unit.

Below, each entry is followed by its recorded Percent cleavage result.
Neutrophil Elastase (protein) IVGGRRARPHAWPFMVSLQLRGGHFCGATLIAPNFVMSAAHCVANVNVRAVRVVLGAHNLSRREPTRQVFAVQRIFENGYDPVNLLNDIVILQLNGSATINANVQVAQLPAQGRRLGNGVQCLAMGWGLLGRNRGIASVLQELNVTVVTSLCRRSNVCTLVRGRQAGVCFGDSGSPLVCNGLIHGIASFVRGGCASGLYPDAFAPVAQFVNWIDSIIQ
10
MMP-12 (protein) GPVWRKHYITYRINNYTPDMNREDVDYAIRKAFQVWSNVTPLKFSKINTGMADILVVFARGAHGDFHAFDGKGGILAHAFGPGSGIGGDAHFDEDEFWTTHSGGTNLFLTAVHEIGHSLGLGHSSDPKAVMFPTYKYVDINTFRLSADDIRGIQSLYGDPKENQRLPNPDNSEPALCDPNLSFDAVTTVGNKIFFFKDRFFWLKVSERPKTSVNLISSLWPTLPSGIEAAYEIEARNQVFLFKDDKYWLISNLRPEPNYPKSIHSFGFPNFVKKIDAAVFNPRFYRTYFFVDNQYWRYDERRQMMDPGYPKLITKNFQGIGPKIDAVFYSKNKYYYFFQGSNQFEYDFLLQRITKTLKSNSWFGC
18
MMP-7 (protein) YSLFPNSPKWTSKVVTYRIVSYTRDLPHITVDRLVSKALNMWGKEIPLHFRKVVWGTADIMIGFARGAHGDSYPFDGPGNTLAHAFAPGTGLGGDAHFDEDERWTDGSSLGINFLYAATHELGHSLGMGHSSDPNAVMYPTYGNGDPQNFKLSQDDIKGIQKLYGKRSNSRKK
9

Would you kindly share the measured Percent cleavage for Matriptase (protein) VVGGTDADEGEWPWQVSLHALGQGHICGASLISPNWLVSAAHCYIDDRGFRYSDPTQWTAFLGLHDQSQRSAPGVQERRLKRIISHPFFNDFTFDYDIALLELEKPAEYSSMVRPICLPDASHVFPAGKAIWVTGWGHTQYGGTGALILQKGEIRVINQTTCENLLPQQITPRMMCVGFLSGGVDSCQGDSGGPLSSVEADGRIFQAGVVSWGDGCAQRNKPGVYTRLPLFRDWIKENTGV ? 62
